- Assayed Target: KRAS WT (Homo sapiens (Human), UniProt P01116+P62937)
- Sequence (P01116-2 other isoform, or with tags, fused parts or gaps): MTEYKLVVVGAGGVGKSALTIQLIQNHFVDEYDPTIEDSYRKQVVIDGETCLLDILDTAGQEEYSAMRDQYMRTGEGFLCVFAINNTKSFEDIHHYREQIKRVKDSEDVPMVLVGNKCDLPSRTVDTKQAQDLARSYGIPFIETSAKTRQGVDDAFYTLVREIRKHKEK
- Sequence (P62937 whole entry): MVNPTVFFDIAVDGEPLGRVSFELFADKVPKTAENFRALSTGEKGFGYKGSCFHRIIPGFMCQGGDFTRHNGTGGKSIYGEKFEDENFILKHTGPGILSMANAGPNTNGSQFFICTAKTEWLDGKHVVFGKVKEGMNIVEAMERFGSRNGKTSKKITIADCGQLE
- Assay Comment: Ras-Raf (BRAF RBD) disruption / FRET / MOA assay, KRAS WT
- Format: biochemical
- Condition Info: read-out: IC50* KRAS WT FRET data
pIC50: −log10 of the molar value.
Measured Metric: pIC50

1) C=CC(=O)N1CC[C@H](C(=O)N(C)[C@H](C(=O)N[C@H]2Cc3cc(O)cc(c3)-c3ccc4c(c3)c(c(-c3cccc(=O)n3C(C)C)n4CC)CC(C)(C)COC(=O)[C@@H]3CCCN(N3)C2=O)C(C)C)C1    < 5.00
2) C=CC(=O)N1CC[C@H](C(=O)N(C)[C@H](C(=O)NN2Cc3cc(O)cc(c3)-c3ccc4c(c3)c(c(-c3cccnc3[C@H](C)OC)n4CC)CC(C)(C)COC(=O)[C@@H]3CCCN(N3)C2=O)C(C)C)C1 (atropisomer, axis not shown)    7.00 to 8.00
3) C=CC(=O)N1CC[C@@]2(CCN2C(=O)N(C)[C@H](C(=O)N[C@H]2Cc3nc(cs3)-c3ccc4c(c3)c(c(-c3cccnc3[C@H](C)OC)n4CC)CC(C)(C)COC(=O)[C@@H]3CCCN(N3)C2=O)C(C)C)C1 (atropisomer, axis not shown)    6.00 to 7.00
4) CO[C@@H](C)c1ncccc1-c1c2c3cc(ccc3n1CC(F)(F)F)-c1cccc(c1)C[C@H](NC(=O)[C@@H](COC1CN(C(=O)C#CC(C)(C)N(C)C)C1)C(C)C)C(=O)N1CCC[C@H](N1)C(=O)OCC(C)(C)C2 (atropisomer, axis not shown)    5.00 to 6.00
5) C=CC(=O)N1CC[C@H](C(=O)N(C)[C@H](C(=O)N[C@H]2Cc3cccc(c3)-c3ccc4c(c3)c(c(-c3cnn(C)c3CN(C)C)n4CC)CC(C)(C)COC(=O)[C@@H]3CCCN(N3)C2=O)C(C)C)C1 (relative stereo)    < 5.00
6) C=CC(=O)N1CC[C@H](C(=O)N(C)[C@H](C(=O)N[C@H]2Cc3cccc(c3)-c3ccc4c(c3)c(c(-c3cccnc3[C@H](C)OC)n4CC)CC(C)(C)COC(=O)[C@@H]3CCCN(N3)C2=O)C2CC2)C1 (atropisomer, axis not shown)    5.00 to 6.00
7) CC#CC(=O)N1CC[C@H](C(=O)N(C)[C@H](C(=O)N[C@H]2Cc3cc(O)cc(c3)-c3ccc4c(c3)c(c(-c3ccccc3CCOC)n4CC)CC(C)(C)COC(=O)[C@@H]3CCCN(N3)C2=O)C(C)C)C1    < 5.00
8) C=CC(=O)N1CC[C@H](C(=O)Nc2ccccc2C(=O)N[C@H]2Cc3cc(O)cc(c3)-c3ccc4c(c3)c(c(-c3cnccc3COC)n4CC)CC(C)(C)COC(=O)[C@@H]3CCCN(N3)C2=O)C1    < 5.00
9) CCn1c(-c2cccnc2[C@H](C)OC)c2c3cc(ccc31)-c1cccc(n1)C[C@H](NC(=O)[C@H](C(C)C)N(C)C(=O)N1CCC13CN(C(=O)C#CC(C)(C)N(C)C)C3)C(=O)N1CCC[C@H](N1)C(=O)OCC(C)(C)C2 (atropisomer, axis not shown)    5.00 to 6.00
10) CCn1c(-c2cccnc2[C@H](C)OC)c2c3cc(ccc31)-c1nsc(n1)C[C@H](NC(=O)[C@H](C(C)C)N(C)C(=O)[C@H]1CCN(C(=O)C#CCN3CCOCC3)C1)C(=O)N1CCC[C@H](N1)C(=O)OCC(C)(C)C2 (atropisomer, axis not shown)    < 5.00
11) CO[C@@H](C)c1ncccc1-c1c2c3cc(ccc3n1CC(F)(F)F)-c1csc(n1)C[C@H](NC(=O)[C@H](C(C)C)N(C)C(=O)N1CCN(C(=O)/C=C/CN(C)C)C3(CC3)C1)C(=O)N1CCC[C@H](N1)C(=O)OCC(C)(C)C2 (atropisomer, axis not shown)    7.00 to 8.00
12) C=C(C)C(=O)N1CC2(CCN(C(=O)N(C)[C@H](C(=O)N[C@H]3Cc4nc(cs4)-c4ccc5c(c4)c(c(-c4cccnc4[C@H](C)OC)n5CC)CC(C)(C)COC(=O)[C@@H]4CCCN(N4)C3=O)C(C)C)CC2)C1 (atropisomer, axis not shown)    6.00 to 7.00
13) C=CC(=O)N1CC[C@H](C(=O)N(C)[C@H](C(=O)N[C@H]2Cc3nc(cs3)-c3ccc4c(c3)c(c(-c3cc5c(nc3[C@H](C)OC)CCN(C)C5)n4CC)CC(C)(C)COC(=O)[C@@H]3CCCN(N3)C2=O)C(C)C)C1 (atropisomer, axis not shown)    5.00 to 6.00
14) C=CC(=O)N1CC[C@H](C(=O)N(C)[C@H](C(=O)N[C@H]2Cc3nc(cs3)-c3ccc4c(c3)c(c(-c3cc(C5=CCN(C)CC5)cnc3[C@H](C)OC)n4CC)CC(C)(C)COC(=O)[C@@H]3CCCN(N3)C2=O)C(C)C)C1 (atropisomer, axis not shown)    5.00 to 6.00
15) C=CC(=O)N1CC[C@H](C(=O)N(C)[C@H](C(=O)NC2C[C@@H]3CN(CCO3)c3ccc4c(c3)c(c(-c3cccnc3[C@H](C)OC)n4CC)CC(C)(C)COC(=O)[C@@H]3CC(Br)CN(N3)C2=O)C(C)C)C1 (stereo partly drawn)    < 5.00
